Molecular target: hURAT1 (Homo sapiens)
Sequence (Q96S37 1-553): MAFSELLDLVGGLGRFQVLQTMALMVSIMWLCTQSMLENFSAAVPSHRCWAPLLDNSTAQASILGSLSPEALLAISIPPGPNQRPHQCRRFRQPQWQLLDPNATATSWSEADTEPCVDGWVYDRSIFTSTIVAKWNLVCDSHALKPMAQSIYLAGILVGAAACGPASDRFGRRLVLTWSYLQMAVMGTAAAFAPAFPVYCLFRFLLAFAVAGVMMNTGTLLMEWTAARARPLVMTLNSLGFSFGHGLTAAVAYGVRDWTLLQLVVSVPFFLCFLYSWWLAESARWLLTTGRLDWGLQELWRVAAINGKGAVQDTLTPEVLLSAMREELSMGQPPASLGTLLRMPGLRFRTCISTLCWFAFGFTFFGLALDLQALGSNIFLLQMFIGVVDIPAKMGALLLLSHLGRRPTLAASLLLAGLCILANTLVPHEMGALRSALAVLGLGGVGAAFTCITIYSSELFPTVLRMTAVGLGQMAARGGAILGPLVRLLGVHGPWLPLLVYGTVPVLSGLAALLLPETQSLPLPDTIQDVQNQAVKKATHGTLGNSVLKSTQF
Assay: Inhibition assay of uric acid transport in HEK293-hURAT1 transfection cell line (14C-uric acid uptake)
Format: cell-based
Conditions: 500 nM compound concentration; HEK293-hURAT1 transfection cell line; 14C-uric acid; mean of three tests ± SD; read-out: Inhibitory rates of uric acid transport, ±SD (%)
The label depends only on inhibition at 0.5 µM: Y if it is at least 40%, N if it is smaller.

> print(dat)
                                    compound  answer.label
 1  CCc1nc2scnn2c1C(=O)c1cc(Br)c(O)c(Br)c1 [Compound 49]             N
 2  CCc1nc2sccn2c1C(O)c1cc(Br)c(O)c(Br)c1 (stereo not drawn) [Compound 22]             Y
 3  CCc1nc2cnccn2c1C(=O)c1cc(Br)c(O)c(Br)c1 [Compound 12]             Y
 4  CCc1nc2ncccn2c1C(=O)c1cc(Br)c(O)c(Br)c1 [Compound 4]             Y
 5  CCc1nc2ccccn2c1C(O)c1ccc(O)c(C#N)c1 (stereo not drawn) [Compound 21]             N
 6  CCc1nc2cnccn2c1C(O)c1cc(Br)c(O)c(Br)c1 (stereo not drawn) [Compound 23]             Y
 7  CCc1oc2ccccc2c1C(OC)c1cc(Br)c(O)c(Br)c1 (stereo not drawn) [Compound 58]             Y
 8  CCc1nc2sccn2c1C(=O)c1cc(Br)c(O)c(Br)c1 [Compound 8]             Y
 9  CCc1nc2ccc(F)cn2c1C(O)c1cc(F)c(O)c(Br)c1 (stereo not drawn) [Compound 28]             Y
10  CCc1nc2ccccn2c1C(O)c1cc(Br)c(O)c(C#N)c1 (stereo not drawn) [Compound 20]             Y
11  CCc1nc2ccc(Br)cn2c1C(O)c1cc(Br)c(O)c(Br)c1 (stereo not drawn) [Compound 40]             Y
12  CCc1nc2ccccn2c1C(O)c1cc(C)c(O)c(Br)c1 (stereo not drawn) [Compound 54]             Y
13  CCc1nn2ccccc2c1C(O)c1cc(Br)c(O)c(Br)c1 (stereo not drawn) [Compound 35]             N
14  CCc1nc2cc(C(F)(F)F)ccn2c1C(O)c1cc(Br)c(O)c(Br)c1 (stereo not drawn) [Compound 41]             N
